Tested on: RPMI-8226
Experiment: Solid tumour and haematological malignancy assay (CellTiterGlo)
Format: cell-based
Details: Homo sapiens, RPMI-8226, 72 h, read-out: EC50 (absolute EC50)
measured-parameter: EC50

Data request: What measured EC50 goes with CC(NP(=O)(OC[C@@H]1C[C@@H](O)[C@H](n2cnc3c(N)nc(Cl)nc32)O1)Oc1cccc2ccccc12)C(=O)OCc1ccccc1 (stereo in doubt) [S] ?
Data returned: 15 to 100 µM

---

// reported IC50 for each item listed
Tested on: CCRFCEM
Assay: Solid tumour and haematological malignancy assay (CellTiterGlo)
Assay type: cell-based
Conditions: Homo sapiens, CCRF-CEM, 72 h, read-out: IC50 (absolute IC50)

Consider the following illustrative entries.
Data request: What value of IC50 has been recorded for this entry: Nc1nc(F)nc2c1ncn2[C@@H]1O[C@H](CO)C[C@H]1O [2-F-Cordycepin, 3′deoxy-2-fluoroadenosine, reference compound]
Data returned: 15 to 100 µM

Data request: Fill in the blank: the reported IC50 of CCCCCOC(=O)[C@H](CC(C)C)NP(=O)(OC[C@@H]1C[C@H](O)[C@H](n2cnc3c(N)nc(F)nc32)O1)Oc1cccc2ccccc12 (stereo partly drawn) is ____.
Data returned: 0.1 to 5 µM

Data request: # get_value(readout='IC50', item= COc1nc(N)c2ncn([C@@H]3O[C@H](COP(=O)(N[C@@H](C)C(=O)OCc4ccccc4)Oc4cccc5ccccc45)C[C@H]3O)c2n1 (stereo partly drawn) )
Data returned: 5 to 15 µM

Others:
Data request: GET /values?readout=IC50&item= CCCCCOC(=O)[C@H](CC(C)C)NP(=O)(OC[C@@H]1C[C@H](O)[C@H](n2cnc3c(N)nc(OC)nc32)O1)Oc1cccc2ccccc12 (stereo partly drawn)
Data returned: 5 to 15 µM

Data request: Recorded IC50 of Nc1ncnc2c1ncn2[C@@H]1O[C@H](COP(=O)(NCC(=O)OCc2ccccc2)Oc2ccccc2)C[C@H]1O (stereo partly drawn) , please.
Data returned: 5 to 15 µM

Data request: Which IC50 reading was recorded for the compound CCCCCCOC(=O)[C@H](C)NP(=O)(OC[C@@H]1C[C@H](O)[C@H](n2cnc3c(N)nc(OC)nc32)O1)Oc1ccccc1 (stereo partly drawn) ?
Data returned: 15 to 100 µM

---

Measured IC50, listed per entry.
System: HT29
Assay: Solid tumour and haematological malignancy assay (CellTiterGlo)
Format: cell-based
Conditions: Homo sapiens, HT-29; HT29, 72 hr; read-out: IC50 (absolute IC50)

Data request: Param readout = IC50; param system = HT29; param query = Nc1ncnc2c1ncn2[C@@H]1O[C@H](CO)C[C@H]1O [Cordycepin, 3′-deoxyadenosine, reference compound] ; response: value
Data returned: > 100 µM

---
Data request: What measured IC50 is associated with COc1nc(N)c2ncn([C@@H]3O[C@H](CO)C[C@H]3O)c2n1 [2-OMe-Cordycepin, 3′-deoxy-2-methoxyadenosine, reference compound] on HT29?
Data returned: > 100 µM

---

Test system: HT29
Assay: Solid tumour and haematological malignancy assay (CellTiterGlo)
Type: cell-based
Conditions: Homo sapiens, HT-29; HT29, 72 hr; read-out: EC50 (absolute EC50)
pEC50: −log10 of the molar value.
measured-parameter: pEC50

Data request: Form entry - test system: HT29; read-out: pEC50; compound: Nc1nc(Cl)nc2c1ncn2[C@@H]1O[C@H](CO)C[C@H]1O [2-Cl-cordycepin, 3′-deoxy-2-chloroadenosine, reference compound]
Data returned: < 4.00
